System: SF-268
methodSummary: NCI tumour cell line growth inhibition, 48 h
Activity calls are given as the source filed them. No stated cut-off is given here; in the data, active = GI50 up to about 1.1 µM and inactive = higher.
recordedEndpoint: GI50

Example entries and their recorded answers appear below.
CCN1CCC(O)(c2ccc(Oc3ccc(Cl)cc3)cc2)C(C(=O)c2ccc(Oc3ccc(Cl)cc3)cc2)C1 (stereo not drawn) :: 17.8 µM (inactive)
C[C@H]1C=C2[C@@H]3CC(C)(C(=O)O)CC[C@]3(C)CC[C@]2(C)[C@]2(C)CC[C@H]3C(C)(C)[C@@H](OC(=O)c4cccc5c(=O)c6ccccc6[nH]c45)CC[C@]3(C)[C@@H]12 (stereo partly drawn) :: > 100 µM (inactive)

Just so you know, measured GI50 for CC(=O)NC1C(Sc2ncn(C3OC(CO)C(O)C(O)C3NC(C)=O)n2)OC(CO)C(O)C1O (stereo not drawn) came out at > 100 µM (inactive)

Just so you know, measured GI50 for `O=[N+]([O-])c1ccc2c(c1)S(=O)(=O)N1Cc3ccccc3CCN21` came out at 40.7 µM (inactive)

Just so you know, measured GI50 for COc1ccc(C2c3cc4c(cc3OC(O)(CO)C2C(=O)O)OCO4)cc1.COc1ccc(C2c3cc4c(cc3OC3(O)COC(=O)C23)OCO4)cc1 (stereo not drawn) came out at 28 µM (inactive)

Just so you know, measured GI50 for `O=C(O)/C=c1/c2ccccc2n2nc3ccccc3c12` came out at 38.4 µM (inactive)

Just so you know, measured GI50 for `O=C1NC(N2CCOCC2)=N/C1=C\c1ccc(O)cc1` came out at > 100 µM (inactive)

Just so you know, measured GI50 for `N#Cc1c2c(c(Nc3ccc(F)cc3)n3c1nc1ccccc13)CCC2` came out at 3.55 µM (inactive)

====

System: HCC 2998
methodSummary: NCI tumour cell line growth inhibition, 48 h
Activity calls are given as the source filed them. Cut-off read from the data, not from the text of the source: active = GI50 up to about 1.1 µM and inactive = higher.
recordedEndpoint: GI50

Example entries and their recorded answers appear below.
COc1cc(NS(=O)(=O)c2ccc(C)cc2)c2nccnc2c1 :: 47.6 µM (inactive)
O=C1/C(=C/c2ccc(O)c(O)c2)CC/C1=C\c1ccc(O)c(O)c1 :: > 21.6 µM (inactive)
CCC1c2cc3n(c(=O)c2COC1O)Cc1c-3nc2ccccc2c1Cl (stereo unspecified) :: 44.7 µM (inactive)
N=C(N)N/N=C(/CC1OC(=O)c2ccccc21)c1ccc2ccccc2c1 (stereo unspecified) :: 17.3 µM (inactive)
CCOS(C)(=O)=O :: > 100 µM (inactive)

Just so you know, measured GI50 for `Cc1ccccc1NC(=O)/C(C#N)=N\Nc1[nH]cnc1C(N)=O` came out at 2.92 µM (inactive)

====

Test system: SN12C
methodSummary: NCI tumour cell line growth inhibition, 48 h
Active and inactive are the calls of the source. Cut-off read from the data, not from the text of the source: active = GI50 up to about 1.1 µM and inactive = higher.
A correct response names exactly one class from active, inactive

Known results for molecules:
NNC(=O)c1cc([N+](=O)[O-])ccc1NC(=O)C12CC3CC(CC(C3)C1)C2 :: inactive
COc1ccc(-c2csc3c2-n2cccc2C3=O)cc1 :: active

Now take the following molecule into account.
Qu. Call for entry `COc1cc(CNC(=S)CCCCCCCCCCC(C)C)ccc1O` :
Ans. inactive

====

System: CAKI-1
methodSummary: NCI tumour cell line growth inhibition, 48 h
Active and inactive are the calls of the source. Cut-off read from the data, not from the text of the source: active = GI50 up to about 1.1 µM and inactive = higher.
recordedEndpoint: GI50

Example entries and their recorded answers appear below.
N#CC(C#N)=Cc1c(O)ccc2ccccc12 :: 14.1 µM (inactive)
CCOC(=O)C(O)(NC(=O)Nc1ccc(F)cc1)C(F)(F)F (stereo not given) :: 38.8 µM (inactive)
Cc1ccc(C2(N3CCOCC3)OC(C)(C)c3cccc4cccc2c34)cc1 (stereo not given) :: 18.2 µM (inactive)
C=C(C)CCC(O)[C@](C)(O)[C@H]1[C@H](O)C[C@@]2(C)[C@@H]3CCc4c(cc(OC5OC(CO)C(O)C(O)C5O)c(O)c4C)C3(C)C(=O)C[C@]12C (stereo not given in full) :: > 100 µM (inactive)

Just so you know, measured GI50 for `COc1ccc(/C=C/C(=O)Oc2cc(O)cc(O)c2)cc1` came out at 17.2 µM (inactive)

====

Test system: IGROV-1
methodSummary: NCI tumour cell line growth inhibition, 48 h
The source made the active and inactive calls. Rule as the data show it: active = GI50 up to about 1.1 µM and inactive = higher.
A correct response names exactly one class from TRUE (active), FALSE (inactive)

Known results for compounds:
c1ccc2sc(SCCSc3nc4ccccc4s3)nc2c1 :: FALSE
CC(N/N=C(\S)N1CCCCCC1)c1cccnn1 (stereo not given) :: TRUE
Cc1ccc(C2(N3CCOCC3)OC(C)(C)c3cccc4cccc2c34)cc1 (stereo not given) :: FALSE
CCOC(=O)/C(=C\c1cccc(C)c1)C(C)=O :: FALSE
CCc1cccc(C(C)C)c1NC(=O)CC1Sc2ccccc2NC1=O (stereo not given) :: FALSE

Qu. Call for entry `Nc1n[n+]([O-])c2ccccc2[n+]1[O-]` :
Ans. FALSE

Qu. Call for entry `Cc1ccc([Se][Se]c2ccc(C)cc2)cc1` :
Ans. FALSE

Qu. Call for entry `Cc1ccc2c(c1)nc(N)n[n+]2[O-]` :
Ans. FALSE

Qu. Call for entry `COc1cc(/C=C\c2ccc(Br)cc2)cc(OC)c1OC` :
Ans. TRUE

Qu. Call for entry C[C@]12CC[C@H](OC(=O)Nc3ccccc3)CC1=CC[C@@H]1C2CC[C@]2(C)/C(=N/OC(=O)Nc3ccccc3)CCC12 (stereo not given in full) :
Ans. FALSE

Qu. Call for entry `COc1c2nc(CCl)[nH]c(=O)c2c(OC)c2nc(CCl)[nH]c(=O)c12` :
Ans. FALSE

Qu. Call for entry N/N=C1\C(=O)N(CCc2ccccc2)C(=O)C1C(=O)NCCc1ccccc1 (stereo not given) :
Ans. FALSE

Qu. Call for entry `CCC1=CC2CN3Cn4c(c(COCc5c6n(c7ccccc57)CN5CC7C=C(CC)C5C6(C(=O)OC)C7)c5ccccc54)C(C(=O)OC)(C2)C13` :
Ans. FALSE

Qu. Call for entry Cc1cc2c(cc1Br)C1(C)CCC(C)C1(C)O2 (stereo not given) :
Ans. FALSE

Qu. Call for entry `O=C(C[N+]12CN3CN(CN(C3)C1)C2)c1ccc(-c2ccccc2)cc1` :
Ans. FALSE

Qu. Call for entry `S=C(NN=C1NCCCCN1)Nc1ccc(Cl)cc1` :
Ans. FALSE

Qu. Call for entry `N#Cc1c(-c2ccco2)cc(-c2ccccc2)nc1O` :
Ans. FALSE

Qu. Call for entry `Cc1cccc(/N=N/c2c(C)nn(C(=O)CC(=O)Nc3ccccc3)c2C)c1` :
Ans. FALSE

====

GI50 by entry:
System: SNB-75
methodSummary: NCI tumour cell line growth inhibition, 48 h
Calls of active or inactive are those of the source. Rule as the data show it: active = GI50 up to about 1.1 µM and inactive = higher.

Example entries and their recorded answers appear below.
O=c1[nH]c(=O)n(COCc2ccccc2)c2ccccc12 :: 13.1 µM (inactive)
COc1cccc(C(=O)O)c1Cc1cccc2ccccc12 :: > 100 µM (inactive)
Cc1c2c(n3c(nc4ccccc43)c1C#N)NCC2 :: > 10 µM (inactive)
O=[N+]([O-])c1ccc2c(c1)C1=C(CO2)Cc2ccccc2O1 :: > 100 µM (inactive)
O=C1CCCCCCCCCCC1CCCCCBr (configuration not stated) :: 16.3 µM (inactive)

Just so you know, measured GI50 for CC1=C[C@H]2c3c([nH]c4ccccc34)C(c3c[nH]c4ccccc34)[C@H]2CC1 (some centres not stated) came out at 6.44 µM (inactive)

Just so you know, measured GI50 for OC(CCN1CCN(CCOC(c2ccc(F)cc2)c2ccc(F)cc2)CC1)c1ccc(Br)cc1 (configuration not stated) came out at 9.77 µM (inactive)

Just so you know, measured GI50 for Cc1cc(C)c(C2CC(O)C(CO)O2)cc1C (configuration not stated) came out at > 100 µM (inactive)

====

Tested on: LOX IMVI
methodSummary: NCI tumour cell line growth inhibition, 48 h
Active and inactive are the calls of the source. No stated cut-off is given here; in the data, active = GI50 up to about 1.1 µM and inactive = higher.
A correct response names exactly one class from active, inactive

Qu. Call for entry CCCC(=O)NC1CCc2cc(OC)c(OC)c(OC)c2-c2ccc(OC)c(=O)cc21 (stereo not given) :
Ans. active

Qu. Call for entry CCOP(=O)(O)C1C(CO)OC(n2ccc(=O)[nH]c2=O)C1O (stereo not given) :
Ans. inactive

Qu. Call for entry `O=C1C=CC2(C=C1)C[C@H](NC(=O)C(F)(F)F)C(=O)O2` :
Ans. inactive

Qu. Call for entry `COC(=O)c1c(O)ccc2c1c1cc3ccccc3cc1n2Cc1cc(OC)cc(OC)c1` :
Ans. inactive

Qu. Call for entry CC(O)C(NC(=O)C(CS)NC(=O)C(CO)NC(=O)C(CCCCN)NC(=O)C(Cc1c[nH]c2ccccc12)NC(=O)C(Cc1ccc(O)cc1)NC(=O)C(CS)NC(=O)C(N)Cc1ccccc1)C(N)=O (stereo not given) :
Ans. inactive

Qu. Call for entry `CCC1=CC2CN3Cn4c(c(COCc5c6n(c7ccccc57)CN5CC7C=C(CC)C5C6(C(=O)OC)C7)c5ccccc54)C(C(=O)OC)(C2)C13` :
Ans. inactive

Qu. Call for entry `O=[N+]([O-])c1ccc2c(c1)S(=O)(=O)N1Cc3ccccc3CCN21` :
Ans. inactive

Qu. Call for entry `CNC(=O)CN(CC(=O)NC)C(=O)NC` :
Ans. inactive

Qu. Call for entry `COc1ccc(OC(C)=O)c2c1CCC=CC2=O` :
Ans. inactive

Qu. Call for entry `Nc1cccc2c1C(=O)c1cccc(N)c1C2=O` :
Ans. inactive
